# Test system: LNCaP tumor-bearing mice
# protocol_details: Ex vivo biodistribution in LNCaP tumor-bearing mice
# Design: species or system mouse
# condition: 1 h post-injection
# Description: Imaging, biodistribution and radioligand therapy experiments were performed following previously published procedures using male NOD-scid IL2Rg^null (NSG) or NOD.Cg-Rag1^tm1MomIl2rg^tm1Wjl/SzJ (NRG) mice [10]-[12],[14]-[15]. […] For biodistribution studies, the mice were injected with the radioligand (2-4 MBq) as described above. […] Blood was withdrawn by cardiac puncture, and organs/tissues of interest were collected, weighed and counted using an automatic gamma counter (Tables S4-S7).
Would you kindly list Brain uptake for each of these molecules?
Reply numerically in %ID/g, unit not repeated.

Ask: Please provide the recorded Brain uptake for COc1ccc(CCCC(=O)NCC(=O)N[C@@H](CCCCNC(=O)CN2CCN(CC(=O)[O-])CCN(CC(=O)[O-])CCN(CC(=O)[O-])CC2)C(=O)NC[C@H]2CC[C@H](C(=O)N[C@@H](Cc3c4ccccc4cc4ccccc34)C(=O)NCCCC[C@H](NC(=O)N[C@@H](CSCC(=O)O)C(=O)O)C(=O)O)CC2)cc1.[177Lu+3] [[^177Lu]Lu-HTK04048] , tested on LNCaP tumor-bearing mice.
Reply: 0.29

Ask: Please provide the recorded Brain uptake for O=C([O-])CN1CCN(CC(=O)[O-])CCN(CC(=O)NCC2CCC(C(=O)NC(Cc3c4ccccc4cc4ccccc34)C(=O)NCCCCC(NC(=O)NC(COCC(=O)O)C(=O)O)C(=O)O)CC2)CCN(CC(=O)[O-])CC1.[68Ga+3] (centres unmarked) [[^68Ga]Ga-HTK03187] , tested on LNCaP tumor-bearing mice.
Reply: 0.02

Ask: Please provide the recorded Brain uptake for O=C([O-])CN1CCN(CC(=O)[O-])CCN(CC(=O)NCC2CCC(C(=O)NC(Cc3c4ccccc4cc4ccccc34)C(=O)NCCCCC(NC(=O)NC(CSCC(=O)O)C(=O)O)C(=O)O)CC2)CCN(CC(=O)[O-])CC1.[68Ga+3] (centres unmarked) [[^68Ga]Ga-HTK03177] , tested on LNCaP tumor-bearing mice.
Reply: 0.02

Ask: Please provide the recorded Brain uptake for COc1ccc(CCCC(=O)NCC(=O)N[C@@H](CCCCNC(=O)CN2CCN(CC(=O)[O-])CCN(CC(=O)[O-])CCN(CC(=O)[O-])CC2)C(=O)NC[C@H]2CC[C@H](C(=O)N[C@@H](Cc3c4ccccc4cc4ccccc34)C(=O)NCCCC[C@H](NC(=O)N[C@@H](CCCC(=O)O)C(=O)O)C(=O)O)CC2)cc1.[177Lu+3] [[^177Lu]Lu-HTK03170] , tested on LNCaP tumor-bearing mice.
Reply: 0.23

Ask: Please provide the recorded Brain uptake for COc1ccc(CCCC(=O)NCC(=O)N[C@@H](CCCCNC(=O)CN2CCN(CC(=O)[O-])CCN(CC(=O)[O-])CCN(CC(=O)[O-])CC2)C(=O)NC[C@H]2CC[C@H](C(=O)N[C@@H](Cc3c4ccccc4cc4ccccc34)C(=O)NCCCC[C@H](NC(=O)N[C@@H](COCC(=O)O)C(=O)O)C(=O)O)CC2)cc1.[177Lu+3] [[^177Lu]Lu-HTK04028] , tested on LNCaP tumor-bearing mice.
Reply: 0.26

---

# Tested on: LNCaP tumor-bearing mice
# protocol_details: Ex vivo biodistribution in LNCaP tumor-bearing mice
# Design: species or system mouse
# condition: 1 h post-injection
measured_parameter: Blood:Salivary gland uptake ratio

Ask: Query (molecule): O=C([O-])CN1CCN(CC(=O)[O-])CCN(CC(=O)NCC2CCC(C(=O)NC(Cc3c4ccccc4cc4ccccc34)C(=O)NCCCCC(NC(=O)NC(COCC(=O)O)C(=O)O)C(=O)O)CC2)CCN(CC(=O)[O-])CC1.[68Ga+3] (centres unmarked) [[^68Ga]Ga-HTK03187] ; field requested: Blood:Salivary gland uptake ratio
Reply: 4.27 ± 0.74

Ask: Query (molecule): COc1ccc(CCCC(=O)NCC(=O)N[C@@H](CCCCNC(=O)CN2CCN(CC(=O)[O-])CCN(CC(=O)[O-])CCN(CC(=O)[O-])CC2)C(=O)NC[C@H]2CC[C@H](C(=O)N[C@@H](Cc3c4ccccc4cc4ccccc34)C(=O)NCCCC[C@H](NC(=O)N[C@@H](COCC(=O)O)C(=O)O)C(=O)O)CC2)cc1.[177Lu+3] [[^177Lu]Lu-HTK04028] ; field requested: Blood:Salivary gland uptake ratio
Reply: 6.93 ± 0.33

---

# System: LNCaP tumor-bearing mice
# protocol_details: Ex vivo biodistribution in LNCaP tumor-bearing mice
# Design: species or system mouse
# condition: 1 h post-injection
# Experimental: Imaging, biodistribution and radioligand therapy experiments were performed following previously published procedures using male NOD-scid IL2Rg^null (NSG) or NOD.Cg-Rag1^tm1MomIl2rg^tm1Wjl/SzJ (NRG) mice [10]-[12],[14]-[15]. […] For biodistribution studies, the mice were injected with the radioligand (2-4 MBq) as described above. […] Blood was withdrawn by cardiac puncture, and organs/tissues of interest were collected, weighed and counted using an automatic gamma counter (Tables S4-S7).
measured_parameter: Liver uptake (%ID/g)
Reply numerically in %ID/g, unit not repeated.

Ask: Query (compound): COc1ccc(CCCC(=O)NCC(=O)N[C@@H](CCCCNC(=O)CN2CCN(CC(=O)[O-])CCN(CC(=O)[O-])CCN(CC(=O)[O-])CC2)C(=O)NC[C@H]2CC[C@H](C(=O)N[C@@H](Cc3c4ccccc4cc4ccccc34)C(=O)NCCCC[C@H](NC(=O)N[C@@H](COCC(=O)O)C(=O)O)C(=O)O)CC2)cc1.[177Lu+3] [[^177Lu]Lu-HTK04028] ; field requested: Liver uptake
Reply: 2.93

Ask: Query (compound): COc1ccc(CCCC(=O)NCC(=O)N[C@@H](CCCCNC(=O)CN2CCN(CC(=O)[O-])CCN(CC(=O)[O-])CCN(CC(=O)[O-])CC2)C(=O)NC[C@H]2CC[C@H](C(=O)N[C@@H](Cc3c4ccccc4cc4ccccc34)C(=O)NCCCC[C@H](NC(=O)N[C@@H](CSCC(=O)O)C(=O)O)C(=O)O)CC2)cc1.[177Lu+3] [[^177Lu]Lu-HTK04048] ; field requested: Liver uptake
Reply: 3.94

Ask: Query (compound): O=C([O-])CN1CCN(CC(=O)[O-])CCN(CC(=O)NCC2CCC(C(=O)NC(Cc3c4ccccc4cc4ccccc34)C(=O)NCCCCC(NC(=O)NC(CSCC(=O)O)C(=O)O)C(=O)O)CC2)CCN(CC(=O)[O-])CC1.[68Ga+3] (stereo not drawn) [[^68Ga]Ga-HTK03177] ; field requested: Liver uptake
Reply: 0.33

---

# System: LNCaP tumor-bearing mice
# protocol_details: Ex vivo biodistribution in LNCaP tumor-bearing mice
# Set-up: species or system mouse
# condition: 1 h post-injection
Would you kindly list Bone uptake for each of these compounds?
Reply numerically in %ID/g, unit not repeated.

Ask: Query (compound): COc1ccc(CCCC(=O)NCC(=O)N[C@@H](CCCCNC(=O)CN2CCN(CC(=O)[O-])CCN(CC(=O)[O-])CCN(CC(=O)[O-])CC2)C(=O)NC[C@H]2CC[C@H](C(=O)N[C@@H](Cc3c4ccccc4cc4ccccc34)C(=O)NCCCC[C@H](NC(=O)N[C@@H](CSCC(=O)O)C(=O)O)C(=O)O)CC2)cc1.[177Lu+3] [[^177Lu]Lu-HTK04048] ; field requested: Bone uptake
Reply: 1.10

Ask: Query (compound): COc1ccc(CCCC(=O)NCC(=O)N[C@@H](CCCCNC(=O)CN2CCN(CC(=O)[O-])CCN(CC(=O)[O-])CCN(CC(=O)[O-])CC2)C(=O)NC[C@H]2CC[C@H](C(=O)N[C@@H](Cc3c4ccccc4cc4ccccc34)C(=O)NCCCC[C@H](NC(=O)N[C@@H](CCCC(=O)O)C(=O)O)C(=O)O)CC2)cc1.[177Lu+3] [[^177Lu]Lu-HTK03170] ; field requested: Bone uptake
Reply: 0.89

---

# System: LNCaP tumor-bearing mice
# protocol_details: Ex vivo biodistribution in LNCaP tumor-bearing mice
# Parameters: species or system mouse
# condition: 1 h post-injection
Would you kindly list Tumor:Blood uptake ratio for each of these molecules?
API note: the answer field is a bare number with no unit suffix.

Ask: Query (molecule): O=C([O-])CN1CCN(CC(=O)[O-])CCN(CC(=O)NCC2CCC(C(=O)NC(Cc3c4ccccc4cc4ccccc34)C(=O)NCCCCC(NC(=O)NC(COCC(=O)O)C(=O)O)C(=O)O)CC2)CCN(CC(=O)[O-])CC1.[68Ga+3] (centres unmarked) [[^68Ga]Ga-HTK03187] ; field requested: Tumor:Blood uptake ratio
Reply: 32.2

Ask: Query (molecule): COc1ccc(CCCC(=O)NCC(=O)N[C@@H](CCCCNC(=O)CN2CCN(CC(=O)[O-])CCN(CC(=O)[O-])CCN(CC(=O)[O-])CC2)C(=O)NC[C@H]2CC[C@H](C(=O)N[C@@H](Cc3c4ccccc4cc4ccccc34)C(=O)NCCCC[C@H](NC(=O)N[C@@H](CSCC(=O)O)C(=O)O)C(=O)O)CC2)cc1.[177Lu+3] [[^177Lu]Lu-HTK04048] ; field requested: Tumor:Blood uptake ratio
Reply: 0.84

Ask: Query (molecule): O=C([O-])CN1CCN(CC(=O)[O-])CCN(CC(=O)NCC2CCC(C(=O)NC(Cc3c4ccccc4cc4ccccc34)C(=O)NCCCCC(NC(=O)NC(CSCC(=O)O)C(=O)O)C(=O)O)CC2)CCN(CC(=O)[O-])CC1.[68Ga+3] (centres unmarked) [[^68Ga]Ga-HTK03177] ; field requested: Tumor:Blood uptake ratio
Reply: 36.1

Ask: Query (molecule): COc1ccc(CCCC(=O)NCC(=O)N[C@@H](CCCCNC(=O)CN2CCN(CC(=O)[O-])CCN(CC(=O)[O-])CCN(CC(=O)[O-])CC2)C(=O)NC[C@H]2CC[C@H](C(=O)N[C@@H](Cc3c4ccccc4cc4ccccc34)C(=O)NCCCC[C@H](NC(=O)N[C@@H](CCCC(=O)O)C(=O)O)C(=O)O)CC2)cc1.[177Lu+3] [[^177Lu]Lu-HTK03170] ; field requested: Tumor:Blood uptake ratio
Reply: 1.58

Ask: Query (molecule): COc1ccc(CCCC(=O)NCC(=O)N[C@@H](CCCCNC(=O)CN2CCN(CC(=O)[O-])CCN(CC(=O)[O-])CCN(CC(=O)[O-])CC2)C(=O)NC[C@H]2CC[C@H](C(=O)N[C@@H](Cc3c4ccccc4cc4ccccc34)C(=O)NCCCC[C@H](NC(=O)N[C@@H](COCC(=O)O)C(=O)O)C(=O)O)CC2)cc1.[177Lu+3] [[^177Lu]Lu-HTK04028] ; field requested: Tumor:Blood uptake ratio
Reply: 1.11
